Value source: paper PMC11062899

molecular target: porcine pepsin (Sus scrofa); construct: 0.32 g of porcine pepsin (Sigma-Aldrich, P7125) was dissolved under gentle agitation; purchased Sigma-Aldrich P7125; assay: Peptide stability in simulated gastric fluid (SGF); assay type: in vitro ADME; conditions: simulated gi fluid; 8 h, 37 °C, pH 1.2; read-out: Proteolytic stability: SGF (8 h) % remaining
metric: remaining at 8 h (%)
Numbers only, in %.

Examples from the recorded data:
In [3]: df
Out[3]:
                                   molecule  resultnumber
0  O=C1C[C@H]2CCCN2C(=O)[C@H](Cc2ccccc2)NC(=O)[C@@H](NC(=O)c2ccc(Cl)s2)CCSC/C=C/CSCCN1 [compound 34]            99
1  O=C1NCCSCc2cccc(n2)CSC[C@H](NC(=O)c2ccc(Cl)s2)C(=O)N[C@@H](CO)C(=O)NCc2ccc1cc2 [compound 25]           101
2  O=C1C[C@H]2CCCN2C(=O)[C@H](Cc2ccccc2)NC(=O)[C@@H](NC(=O)c2ccc(Cl)s2)CCSCc2cccc(n2)CSCCN1 [compound 33]            95
3  O=C1NCCSCc2cccc(n2)CSC[C@H](NC(=O)c2ccc(Cl)s2)C(=O)N[C@@H](CO)C(=O)NCc2cccc1c2 [compound 27]            99
4  C[C@@H]1NC(=O)[C@@H](NC(=O)c2ccc(Cl)s2)CSCc2cccc(n2)CSCCNC(=O)c2ccc(cc2)CNC1=O [compound 26]            97

Answer with reported remaining at 8 h of O=C1CCSC/C=C/CSCCNC(=O)[C@H](CNC(=O)c2ccc(Cl)s2)NC(=O)[C@H](Cc2ccccn2)N1 [compound 22]
96

###

molecular target: porcine pepsin (Sus scrofa, UniProt P00791); construct: 0.32 g of porcine pepsin (Sigma-Aldrich, P7125) was dissolved under gentle agitation; purchased Sigma-Aldrich P7125; assay: Peptide stability in simulated gastric fluid (SGF); assay type: in vitro ADME; parameters: dose or concentration left out as unconfirmed; details: pig, simulated gastric fluid (SGF, USP) with porcine pepsin, pH 1.2; after 8 h vs 0 h (TIC); average of R1-R3; read-out: SGF stability, Residual peptide Average
Sequence (P00791 60-385): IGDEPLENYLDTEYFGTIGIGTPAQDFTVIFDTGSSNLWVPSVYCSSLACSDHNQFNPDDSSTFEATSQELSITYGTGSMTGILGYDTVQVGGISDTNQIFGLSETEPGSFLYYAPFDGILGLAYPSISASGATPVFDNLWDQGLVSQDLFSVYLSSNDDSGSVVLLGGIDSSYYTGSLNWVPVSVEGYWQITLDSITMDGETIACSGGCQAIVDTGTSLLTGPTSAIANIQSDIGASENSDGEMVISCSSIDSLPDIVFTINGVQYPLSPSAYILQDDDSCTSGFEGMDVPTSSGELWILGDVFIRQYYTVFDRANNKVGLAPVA
metric: remaining at 8 h (%)
One number for each entry, in %.

Consider the compound O=C1C[C@H]2CCCN2C(=O)[C@H](Cc2ccccc2)NC(=O)[C@@H](NC(=O)c2ccc(Cl)s2)CSCCS(=O)(=O)CCSCCN1 [peptide 11] tested on porcine pepsin (Sus scrofa, UniProt P00791); state its remaining at 8 h.
36.5

###

molecular target: rat α-thrombin (Rattus norvegicus); construct: rat α-thrombin (Molecular Innovations) were used at final concentrations of 2 nM and 3 nM; purchased Molecular Innovations; test: Protease inhibition, Ki for rat α-thrombin (fluorogenic substrate Z-Gly-Gly-Arg-AMC); format: biochemical; settings: average of R1-R3; read-out: Ki Average, rat alpha thrombin inhibition
metric: pKi
Answers are plain numbers, as −log10 of the molar value.

Consider the compound O=C1C[C@H]2CCCN2C(=O)[C@H](Cc2ccccc2)NC(=O)[C@@H](NC(=O)c2ccc(Cl)cc2F)CCC=CCCCCN1 [compound 45] tested on rat α-thrombin (Rattus norvegicus); state its pKi.
7.44

###

Give measured Residual thrombin activity: Top sample for each item. Keep answers brief.
biological target: human α-thrombin (Homo sapiens); assay: Sub-library screen for active and permeable cyclic peptides (PAMPA plus thrombin inhibition); format: biochemical; details: PAMPA acceptor well after 14 h, 5 μM donor; crude; slopes normalized to DMSO
Numbers only.

# per-item lookup of Residual thrombin activity: Top sample; items listed below
1. O=C1C[C@H]2CCCN2C(=O)[C@H](Cc2ccccc2)NC(=O)[C@@H](NC(=O)c2ccc(Cl)s2)CCSCc2ccc(cc2)CSCCN1
2. CN1C(=O)[C@@H](NC(=O)c2ccc(Cl)s2)CCSCc2cccc(n2)CSCCNC(=O)C[C@H]2CCCN2C(=O)[C@@H]1Cc1ccccc1
3. CN1C(=O)[C@@H](NC(=O)c2ccc(Cl)s2)CCCSCc2cccc(c2)CSCCNC(=O)C[C@H]2CCCN2C(=O)[C@@H]1Cc1ccccc1
4. O=C1C[C@H]2CCCN2C(=O)[C@H](Cc2ccc(C(F)(F)F)cc2)NC(=O)[C@@H](NC(=O)c2ccc(Cl)s2)CCSCc2ccccc2CSCCN1
5. COc1ccc(C[C@@H]2NC(=O)[C@@H](NC(=O)c3ccc(Cl)s3)CCSCCS(=O)(=O)CCSCCNC(=O)C[C@H]3CCCN3C2=O)cc1
6. CN1C(=O)[C@@H](NC(=O)c2ccc(Cl)s2)CSCC(=O)CSCCNC(=O)C[C@H]2CCCN2C(=O)[C@@H]1Cc1ccccc1

1: 86.6; 2: 92.7; 3: 103.6; 4: 96.8; 5: 98.8; 6: 95.4
